Origin of measurements: ChEMBL document CHEMBL5303304

Test system: HEK-293T
test: Incucyte cell viability with HEK293T; further: unitless GR value; below 1 slowed growth and below 0 cell loss
Assay type: toxicity, cell-based
experimental_parameters: human, 24 h, 10 µM, compound concentration 10 uM, replicate number 2
value_type: Growth Rate
Numbers only.

Parameter requested: Growth Rate. Apply to each item below.
1. Cc1nccn1-c1ccc(Sc2cccc(C3(C(N)=O)CCOCC3)c2)cc1
2. CCC(F)(F)c1cc(N2CCC(S(C)(=O)=O)CC2)nc2sc(C(N)=O)c(N)c12 [BI-605906]
3. CC(C)Nc1ncnc2cc(OCc3cccc([S@@](C)(=N)=O)c3)c(Br)cc12

stdout:
0.1
0.91
0.87

Go through the list and state Growth Rate for each entry.
1. CC[C@@H]1C(=O)N(C)c2cnc(Nc3ccc(C(=O)NC4CCN(C)CC4)cc3OC)nc2N1C1CCCC1 [BI-2536]
2. C[C@@H](CO)CCC[C@@H](C)[C@H]1CC[C@H]2[C@@H]3CC=C4C[C@@H](O)CC[C@]4(C)[C@H]3CC[C@]12C
3. CN1CCN(c2ccc(/C=C(\C#N)c3ccccc3Br)cc2)CC1.Cl.Cl
4. CN(c1ccc(C(F)(F)F)cc1)S(=O)(=O)c1ccc(C(=O)Nc2nc(-c3ccccn3)cs2)cc1
5. CCN(C)C(=O)c1ccc2c(c1)NC(=O)/C2=C(\NC1CCN(C)CC1)c1ccccc1

stdout:
1. -0.18
2. 1
3. 0.71
4. 0.76
5. 0.89

stdin: Please give the measured Growth Rate for this compound: Cc1ccccc1Oc1cc(-n2c(=O)cc(C(F)(F)F)[nH]c2=O)c2ccccc2c1Cl [BAY-069]
stdout: 0.45
